Target: T1, human G-protein-coupled receptor family C group 5 member D (GPRC5D) (human, UniProt Q9NZD1 1-345)
T1 construct: whole, on cells; also called human GPRC5D protein
T1 sequence (Q9NZD1 whole entry): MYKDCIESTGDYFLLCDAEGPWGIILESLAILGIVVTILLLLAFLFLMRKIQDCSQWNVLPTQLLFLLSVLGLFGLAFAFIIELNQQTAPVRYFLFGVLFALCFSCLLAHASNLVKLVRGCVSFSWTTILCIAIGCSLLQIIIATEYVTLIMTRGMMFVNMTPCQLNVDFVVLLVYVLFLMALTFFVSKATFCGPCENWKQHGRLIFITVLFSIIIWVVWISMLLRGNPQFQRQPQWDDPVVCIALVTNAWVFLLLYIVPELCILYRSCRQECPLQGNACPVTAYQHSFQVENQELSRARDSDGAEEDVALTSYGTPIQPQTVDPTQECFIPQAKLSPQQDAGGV
Experiment: FACS, CHO-K1/GPRC5D
measured.parameter: Span

1. 34-H3L4 (antibody, V domains shown, humanized 34D3H1, VH v3 x VL v4) VH: EVHLVESGGGLVKPGGSLRLSCAASGFTFSSYGMSWVRQTPGKRLEWVATISSGGSYTYYPDSVKGRFTISRDNAKNSLNLQMSSLRAEDTAVYYCARQGGDAMDYWGQGTLVTVSS VL: DIVLTQSPSSLSVSVGDRVTLTCRASQSINNNLHWYQQKPGKSPKLLIYYASQSISGIPSRFSGSGSGTDFTLTISSVQPEDFATYFCQQSNSRLTFGGGTKLEIK = 180000
2. 34-H3L2 (antibody, V domains shown, humanized 34D3H1, VH v3 x VL v2) VH: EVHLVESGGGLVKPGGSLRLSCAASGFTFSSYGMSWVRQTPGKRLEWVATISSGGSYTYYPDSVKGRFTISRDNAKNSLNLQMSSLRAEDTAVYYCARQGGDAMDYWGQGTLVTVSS VL: DIQMTQSPSSLSASVGDRVTITCRASQSINNNLHWYQQKPGKAPKLLIYYASQSISGIPSRFSGSGSGTDFTLTISSVQPEDFATYFCQQSNSRLTFGGGTKVEIK = 171000
3. 34-H3L3 (antibody, V domains shown, humanized 34D3H1, VH v3 x VL v3) VH: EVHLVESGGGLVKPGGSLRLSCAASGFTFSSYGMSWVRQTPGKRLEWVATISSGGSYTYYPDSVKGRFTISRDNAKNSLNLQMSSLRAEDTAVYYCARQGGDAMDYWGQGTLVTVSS VL: DIQLTQSPSSLSASVGDRVTITCRASQSINNNLHWYQQKPGKSPKLLIYYASQSISGIPSRFSGSGSGTDFTLTISSVQPEDFATYFCQQSNSRLTFGGGTKLEIK = 184000
4. 34-H1L2 (antibody, V domains shown, humanized 34D3H1, VH v1 x VL v2) VH: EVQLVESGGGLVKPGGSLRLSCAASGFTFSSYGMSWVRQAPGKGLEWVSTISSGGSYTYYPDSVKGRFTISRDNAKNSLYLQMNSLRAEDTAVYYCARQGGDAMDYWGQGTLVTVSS VL: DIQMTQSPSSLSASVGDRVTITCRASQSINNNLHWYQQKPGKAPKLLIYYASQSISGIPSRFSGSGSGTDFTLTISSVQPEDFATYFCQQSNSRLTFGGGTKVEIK = 168000
5. 34-H2L4 (antibody, V domains shown, humanized 34D3H1, VH v2 x VL v4) VH: EVQLVESGGGLVKPGGSLRLSCAASGFTFSSYGMSWVRQTPGKGLEWVATISSGGSYTYYPDSVKGRFTISRDNAKNSLYLQMSSLRAEDTAVYYCARQGGDAMDYWGQGTLVTVSS VL: DIVLTQSPSSLSVSVGDRVTLTCRASQSINNNLHWYQQKPGKSPKLLIYYASQSISGIPSRFSGSGSGTDFTLTISSVQPEDFATYFCQQSNSRLTFGGGTKLEIK = 188000
6. 34-H2L3 (antibody, V domains shown, humanized 34D3H1, VH v2 x VL v3) VH: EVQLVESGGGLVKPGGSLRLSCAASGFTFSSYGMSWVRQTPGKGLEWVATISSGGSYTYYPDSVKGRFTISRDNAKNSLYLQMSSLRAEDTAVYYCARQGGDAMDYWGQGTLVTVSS VL: DIQLTQSPSSLSASVGDRVTITCRASQSINNNLHWYQQKPGKSPKLLIYYASQSISGIPSRFSGSGSGTDFTLTISSVQPEDFATYFCQQSNSRLTFGGGTKLEIK = 179000
7. 34-H1L3 (antibody, V domains shown, humanized 34D3H1, VH v1 x VL v3) VH: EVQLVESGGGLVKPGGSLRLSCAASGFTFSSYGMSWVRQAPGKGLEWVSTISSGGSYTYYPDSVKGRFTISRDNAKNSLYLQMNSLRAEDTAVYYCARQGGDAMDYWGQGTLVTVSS VL: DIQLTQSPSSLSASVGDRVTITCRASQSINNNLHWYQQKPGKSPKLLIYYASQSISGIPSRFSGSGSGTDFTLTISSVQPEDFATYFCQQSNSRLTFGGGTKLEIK = 175000
8. 34-H2L1 (antibody, V domains shown, humanized 34D3H1, VH v2 x VL v1) VH: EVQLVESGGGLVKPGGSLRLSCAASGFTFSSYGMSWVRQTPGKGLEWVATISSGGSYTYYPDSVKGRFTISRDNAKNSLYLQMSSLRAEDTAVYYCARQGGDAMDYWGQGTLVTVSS VL: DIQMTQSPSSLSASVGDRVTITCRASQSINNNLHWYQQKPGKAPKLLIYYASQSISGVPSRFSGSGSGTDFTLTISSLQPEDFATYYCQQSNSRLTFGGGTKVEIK = 179000
9. 34-XI (antibody, V domains shown, also called 34D3H1 (chimeric)) VH: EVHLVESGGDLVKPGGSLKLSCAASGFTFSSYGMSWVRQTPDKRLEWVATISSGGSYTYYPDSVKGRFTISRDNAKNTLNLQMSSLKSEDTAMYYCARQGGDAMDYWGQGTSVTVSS VL: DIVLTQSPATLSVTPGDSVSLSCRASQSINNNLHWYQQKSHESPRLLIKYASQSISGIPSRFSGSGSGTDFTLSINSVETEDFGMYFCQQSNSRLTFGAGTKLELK = 176000
10. 34-H1L1 (antibody, V domains shown, humanized 34D3H1, VH v1 x VL v1) VH: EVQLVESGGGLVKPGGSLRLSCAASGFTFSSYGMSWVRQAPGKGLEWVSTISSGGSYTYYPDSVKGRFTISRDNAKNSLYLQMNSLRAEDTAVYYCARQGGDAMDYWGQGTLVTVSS VL: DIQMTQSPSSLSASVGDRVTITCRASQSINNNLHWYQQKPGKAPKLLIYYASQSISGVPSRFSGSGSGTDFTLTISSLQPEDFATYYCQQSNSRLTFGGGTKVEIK = 186000
11. 34-H1L4 (antibody, V domains shown, humanized 34D3H1, VH v1 x VL v4) VH: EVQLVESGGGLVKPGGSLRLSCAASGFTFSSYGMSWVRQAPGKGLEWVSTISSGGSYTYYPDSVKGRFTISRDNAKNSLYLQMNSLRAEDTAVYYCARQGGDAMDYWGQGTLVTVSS VL: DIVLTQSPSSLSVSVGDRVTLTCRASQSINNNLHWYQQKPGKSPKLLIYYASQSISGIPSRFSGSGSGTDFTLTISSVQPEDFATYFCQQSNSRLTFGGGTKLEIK = 179000
